target: human ether-à-go-go-related gene (hERG) potassium channel (human); test: primary screen, population patch clamp on CHO cells stably expressing hERG; higher = less effect of the substance
Sequence (Q12809 whole entry, looked up): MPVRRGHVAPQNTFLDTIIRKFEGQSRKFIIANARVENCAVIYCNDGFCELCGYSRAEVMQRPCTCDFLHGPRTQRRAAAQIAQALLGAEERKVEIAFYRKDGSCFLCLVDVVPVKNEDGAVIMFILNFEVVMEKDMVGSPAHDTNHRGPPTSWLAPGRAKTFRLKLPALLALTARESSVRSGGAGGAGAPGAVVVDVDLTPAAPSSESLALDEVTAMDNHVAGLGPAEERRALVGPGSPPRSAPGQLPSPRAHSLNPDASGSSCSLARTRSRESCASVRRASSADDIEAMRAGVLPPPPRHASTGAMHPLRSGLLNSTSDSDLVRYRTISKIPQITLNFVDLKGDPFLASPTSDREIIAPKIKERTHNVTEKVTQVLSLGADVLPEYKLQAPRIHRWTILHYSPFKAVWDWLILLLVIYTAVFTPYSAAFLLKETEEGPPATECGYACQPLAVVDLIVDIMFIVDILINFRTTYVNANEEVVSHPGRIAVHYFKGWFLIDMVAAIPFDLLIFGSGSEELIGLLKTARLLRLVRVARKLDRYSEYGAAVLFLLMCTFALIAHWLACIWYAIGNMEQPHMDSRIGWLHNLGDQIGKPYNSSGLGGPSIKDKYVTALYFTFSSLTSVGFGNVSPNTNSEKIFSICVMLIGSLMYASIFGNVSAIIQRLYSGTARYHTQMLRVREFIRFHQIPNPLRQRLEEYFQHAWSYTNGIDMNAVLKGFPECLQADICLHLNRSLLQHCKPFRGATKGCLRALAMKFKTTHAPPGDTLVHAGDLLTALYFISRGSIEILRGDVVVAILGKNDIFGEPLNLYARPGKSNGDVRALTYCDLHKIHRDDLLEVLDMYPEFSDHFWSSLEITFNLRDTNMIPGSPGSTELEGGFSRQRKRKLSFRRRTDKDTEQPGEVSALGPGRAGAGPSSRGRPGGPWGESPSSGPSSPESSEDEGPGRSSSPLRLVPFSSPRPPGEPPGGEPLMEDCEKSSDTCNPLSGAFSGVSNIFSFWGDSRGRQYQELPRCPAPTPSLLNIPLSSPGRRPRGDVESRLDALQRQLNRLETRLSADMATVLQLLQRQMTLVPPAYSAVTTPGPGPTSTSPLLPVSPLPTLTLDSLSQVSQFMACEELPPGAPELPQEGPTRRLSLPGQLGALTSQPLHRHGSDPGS
About 2,200 (0.71%) of roughly 310,000 compounds showed an effect of 50% or more. Effects have a minus sign here. The list comes from a sample in which strong results are over-represented; it also holds close analogues and randomly drawn compounds.
In this section, each of the compounds is paired with its reported hERG current change (%, negative = inhibition) at 1uM.
READOUT TYPE: hERG current change (%, negative = inhibition) at 1uM (%)

- Cc1ccc(OCC(O)CN2CCN(Cc3ccc4c(c3)OCO4)CC2)cc1C.Cl (centres unmarked): 5.88
- O=C(c1cc(F)ccc1F)N1CCC(N2CCC(C(=O)N3CCCC3)CC2)CC1: 16.9
- Cc1cc(C=C(C#N)C#N)ccc1N1CCCC1: -68.6
- Cn1c(-[n+]2c(-c3ccccc3)cc(-c3ccccc3)cc2-c2ccccc2)nc2c([N+](=O)[O-])cccc21.[I-]: -6.1
- CCc1ccc(CN2CCC(N3CCC(C(=O)N4CCCC4)CC3)CC2)o1: -28.3
